Molecular target: ACE-2 (Homo sapiens)
Construct: a stop codon inserted after the serine immediately preceding the transmembrane domain; made in house; host or cells: CHO K1 cells (transient transfection, purified from conditioned medium)
Sequence (Q9BYF1 18-740 limits assumed): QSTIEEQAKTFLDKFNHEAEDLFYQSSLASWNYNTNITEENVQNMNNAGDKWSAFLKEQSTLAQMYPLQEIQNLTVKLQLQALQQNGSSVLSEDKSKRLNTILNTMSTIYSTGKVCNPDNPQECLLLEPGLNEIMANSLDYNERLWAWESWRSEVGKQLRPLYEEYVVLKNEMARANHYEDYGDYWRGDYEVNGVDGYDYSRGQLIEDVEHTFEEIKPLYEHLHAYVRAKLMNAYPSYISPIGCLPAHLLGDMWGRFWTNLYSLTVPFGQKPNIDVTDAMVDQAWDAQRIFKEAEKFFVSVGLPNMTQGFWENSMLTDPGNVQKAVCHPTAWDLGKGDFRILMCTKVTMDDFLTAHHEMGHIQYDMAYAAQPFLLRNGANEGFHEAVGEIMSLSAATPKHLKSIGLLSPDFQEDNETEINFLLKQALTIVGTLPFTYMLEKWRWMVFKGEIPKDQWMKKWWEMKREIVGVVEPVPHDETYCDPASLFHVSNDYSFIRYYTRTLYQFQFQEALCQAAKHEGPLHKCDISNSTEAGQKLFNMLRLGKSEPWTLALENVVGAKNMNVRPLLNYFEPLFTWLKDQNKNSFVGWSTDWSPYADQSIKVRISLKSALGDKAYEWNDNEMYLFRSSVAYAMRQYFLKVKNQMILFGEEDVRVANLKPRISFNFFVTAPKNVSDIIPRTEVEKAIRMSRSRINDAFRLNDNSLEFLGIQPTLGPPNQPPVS
Test: ACE-2 Competitive Substrate Assay (ACS Assay)
Assay type: biochemical
Conditions: Table 3, very good ACE-2 inhibiting compounds; species not given; read-out: ACE-2 Activity, Ki
Please provide measured Ki for the entries that follow.

[[record]]
compound = "COc1cccc(Cn2cncc2C[C@H](NC(CC(C)C)C(=O)O)C(=O)O)c1OC (single isomer, unassigned) [IO]"
study_target = "ACE-2 (Homo sapiens)"
measured_property = "Ki"
experimental_value = "50 to 100 nM"

[[record]]
compound = "CC(C)C[C@H](N[C@@H](Cc1ccc(-n2cccc2)cc1)C(=O)O)C(=O)O [PO]"
study_target = "ACE-2 (Homo sapiens)"
measured_property = "Ki"
experimental_value = "< 50 nM"

[[record]]
compound = "CC(C)C[C@H](N[C@@H](Cc1ccc(-c2csc3ccccc23)cc1)C(=O)O)C(=O)O [PA]"
study_target = "ACE-2 (Homo sapiens)"
measured_property = "Ki"
experimental_value = "< 50 nM"

[[record]]
compound = "CC(C)C[C@H](N[C@@H](Cc1ccc(C(=O)O)n1Cc1cc(Cl)cc(Cl)c1)C(=O)O)C(=O)O [QY]"
study_target = "ACE-2 (Homo sapiens)"
measured_property = "Ki"
experimental_value = "< 50 nM"

[[record]]
compound = "CC(C)C[C@H](N[C@@H](CC(=O)Nc1nc2ccccc2s1)C(=O)O)C(=O)O [KV]"
study_target = "ACE-2 (Homo sapiens)"
measured_property = "Ki"
experimental_value = "< 50 nM"


Each compound below has a recorded value; state its Ki.
1. Cc1cc(C)cc(Cn2cncc2C[C@H](NC(CC(C)C)C(=O)O)C(=O)O)c1 (single isomer, unassigned) [HQ]
2. CC(C)C[C@H](N[C@@H](Cc1cncn1Cc1ccc(I)cc1)C(=O)O)C(=O)O [NI]

Result:
1. < 50 nM
2. < 50 nM

For every item in the list below, what is its measured Ki?
1. CC(C)C[C@H](N[C@@H](Cn1ccn(Cc2cc(F)ccc2F)c1=O)C(=O)O)C(=O)O [OW]
2. CC(C)C[C@H](N[C@@H](Cn1ccn(Cc2ccc(Cl)c(Cl)c2)c1=O)C(=O)O)C(=O)O [KU]
3. CC(C)CC(N[C@@H](Cc1cncn1Cc1cccc(C(F)(F)F)c1)C(=O)O)C(=O)O (single isomer, unassigned) [IZ]

Result:
["50 to 100 nM", "50 to 100 nM", "< 50 nM"]

Provide Ki for all items below, preserving their order.
1. CC(C)C[C@H](N[C@@H](Cc1ccc(-c2cccnc2)cc1)C(=O)O)C(=O)O [PJ]
2. CC(C)C[C@H](N[C@@H](Cc1ccc(OCc2csc3ccc(Cl)cc23)cc1)C(=O)O)C(=O)O [QK]
3. C[C@H](N[C@@H](Cc1cncn1Cc1cc(Cl)cc(Cl)c1)C(=O)O)C(=O)O [PL]
4. CC(C)CC(N[C@@H](Cc1cncn1CCC1CCCCC1)C(=O)O)C(=O)O (single isomer, unassigned) [JI]
5. CC(C)C[C@H](N[C@@H](Cc1csc(-c2ccc(F)c(Cl)c2)n1)C(=O)O)C(=O)O [KJ]
6. CC(C)C[C@H](N[C@@H](Cc1ccn(Cc2cc(Cl)cc(Cl)c2)n1)C(=O)O)C(=O)O [LP]

Result:
["50 to 100 nM", "< 50 nM", "< 50 nM", "< 50 nM", "50 to 100 nM", "< 50 nM"]
